The entries below are paired with their reported total protein half-life in vivo.
# Experiment Description: total protein half-life in vivo (active degradation + dilution); higher = more stable protein
# Measurement Conditions: E. coli NCM3722 delta-clpP delta-lon delta-hslV; growth: N-lim chemostat; doubling time 6 h
I only need the number, in h, no unit after it.

For orientation, consider the following solved cases.
Residue Codes	total protein half-life in vivo [h]
MNKVAQYYRELVASLSERLRNGERDIDALVEQARERVIKTGELTRTEVDELTRAVRRDLEEFAMSYEESLKEESDSVFMRVIKESLWQELADITDKTQLEWREVFQDLNHHGVYHSGEVVGLGNLVCEKCHFHLPIYTPEVLTLCPKCGHDQFQRRPFEP [P0AAT9]	5.96
MLILISPAKTLDYQSPLTTTRYTLPELLDNSQQLIHEARKLTPPQISTLMRISDKLAGINAARFHDWQPDFTPANARQAILAFKGDVYTGLQAETFSEDDFDFAQQHLRMLSGLYGVLRPLDLMQPYRLEMGIRLENARGKDLYQFWGDIITNKLNEALAAQGDNVVINLASDEYFKSVKPKKLNAEIIKPVFLDEKNGKFKIISFYAKKARGLMSRFIIENRLTKPEQLTGFNSEGYFFDEDSSSNGELVFKRYEQR [P0A8I3]	2.9
MRTLQGWLLPVFMLPMAVYAQEATVKEVHDAPAVRGSIIANMLQEHDNPFTLYPYDTNYLIYTQTSDLNKEAIASYDWAENARKDEVKFQLSLAFPLWRGILGPNSVLGASYTQKSWWQLSNSEESSPFRETNYEPQLFLGFATDYRFAGWTLRDVEMGYNHDSNGRSDPTSRSWNRLYTRLMAENGNWLVEVKPWYVVGNTDDNPDITKYMGYYQLKIGYHLGDAVLSAKGQYNWNTGYGGAELGLSYPITKHVRLYTQVYSGYGESLIDYNFNQTRVGVGVMLNDLF [P0A921]	6.42
MRILLIEDDMLIGDGIKTGLSKMGFSVDWFTQGRQGKEALYSAPYDAVILDLTLPGMDGRDILREWREKGQREPVLILTARDALAERVEGLRLGADDYLCKPFALIEVAARLEALMRRTNGQASNELRHGNVMLDPGKRIATLAGEPLTLKPKEFALLELLMRNAGRVLSRKLIEEKLYTWDEEVTSNAVEVHVHHLRRKLGSDFIRTVHGIGYTLGEK	4.65
MLKIIRAGMYTTVQDGGRHGFRQSGISHCGALDMPALRIANLLVGNDANAPALEITLGQLTVEFETDGWFALTGAGCEARLDDNAVWTGWRLPMKAGQRLTLKRPQHGMRSYLAVAGGIDVPPVMGSCSTDLKVGIGGLEGRLLKDGDRLPIGKSKRDSMEAQGVKQLLWGNRIRALPGPEYHEFDRASQDAFWRSPWQLSSQSNRMGYRLQGQILKRTTDRELLSHGLLPGVVQVPHNGQPIVLMNDAQTTGGYPRIACIIEADMYHLAQIPLGQPIHFVQCSLEEALKARQDQQRYFEQLAWRLHNEN	5.37

### Prompt Specify reported total protein half-life in vivo for the sequence shown: `MDMHSGTFNPQDFAWQGLTLTPAAAIHIRELVAKQPGMVGVRLGVKQTGCAGFGYVLDSVSEPDKDDLLFEHDGAKLFVPLQAMPFIDGTEVDFVREGLNQIFKFHNPKAQNECGCGESFGV`
### Response 4.64

### Prompt Supply reported total protein half-life in vivo belonging to this sequence: `MSSNFRHQLLSLSLLVGIAAPWAAFAQAPISSVGSGSVEDRVTQLERISNAHSQLLTQLQQQLSDNQSDIDSLRGQIQENQYQLNQVVERQKQILLQIDSLSSGGAAAQSTSGDQSGAAASTTPTADAGTANAGAPVKSGNANTDYNAAIALVQDKSRQDDAMVAFQNFIKNYPDSTYLPNANYWLGQLNYNKGKKDDAAYYFASVVKNYPKSPKAADAMFKVGVIMQDKGDTAKAKAVYQQVISKYPGTDGAKQAQKRLNAM`
### Response 5.65

### Prompt Annotate the sequence MRKSVIAIIIIVLVVLYMSVFVVKEGERGITLRFGKVLRDDDNKPLVYEPGLHFKIPFIETVKMLDARIQTMDNQADRFVTKEKKDLIVDSYIKWRISDFSRYYLATGGGDISQAEVLLKRKFSDRLRSEIGRLDVKDIVTDSRGRLTLEVRDALNSGSAGTEDEVTTPAADNAIAEAAERVTAETKGKVPVINPNSMAALGIEVVDVRIKQINLPTEVSEAIYNRMRAEREAVARRHRSQGQEEAEKLRATADYEVTRTLAEAERQGRIMRGEGDAEAAKLFADAFSKDPDFYAFIRSLRAYENSFSGNQDVMVMSPDSDFFRYMKTPTSATR [P0ABC3] with its measured total protein half-life in vivo.
### Response 6.51

### Prompt Indicate the recorded total protein half-life in vivo value for this sequence: MQARVKWVEGLTFLGESASGHQILMDGNSGDKAPSPMEMVLMAAGGCSAIDVVSILQKGRQDVVDCEVKLTSERREEAPRLFTHINLHFIVTGRDLKDAAVARAVDLSAEKYCSVALMLEKAVNITHSYEVVAA [P0ADX1]
### Response 5.2

### Prompt Respond only with total protein half-life in vivo recorded for MNKRDAINHIRQFGGRLDRFRKSVGGSGDGGRNAPKRAKSSPKPVNRKTNVFNEQVRYAFHGALQDLKSKPFATFLTVMVIAISLTLPSVCYMVYKNVNQAATQYYPSPQITVYLQKTLDDDAAAGVVAQLQAEQGVEKVNYLSREDALGEFRNWSGFGGALDMLEENPLPAVAVVIPKLDFQGTESLNTLRDRITQINGIDEVRMDDSWFARLAALTGLVGRVSAMIGVLMVAAVFLVIGNSVRLSIFARRDSINVQKLIGATDGFILRPFLYGGALLGFSGALLSLILSEILVLRLSSAVAEVAQVFGTKFDINGLSFDECLLLLLVCSMIGWVAAWLATVQHLRHFTPE [P0AC30]
### Response 6.31

### Prompt Given `MIVRPQQHWLRRIFVWHGSVLSKISSRLLLNFLFSIAVIFMLPWYTHLGIKFTLAPFSILGVAIAIFLGFRNNAGYARYVEARKLWGQLMIASRSLLREVKTTLPDSASVREFARLQIAFAHCLRMTLRKQPQAEVLAHYLKTEDLQRVLASNSPANRILLIMGEWLAVQRRNGQLSDILFISLNDRLNDISAVLAGCERIAYTPIPFAYTLILHRTVYLFCIMLPFALVVDLHYMTPFISVLISYTFISLDCLAEELEDPFGTENNDLPLDAICNAIEIDLLQMNDEAEIPAKILPDRHYQLT` , respond with its total protein half-life in vivo.
### Response 6.05

### Prompt Specify reported total protein half-life in vivo for the sequence shown: MTQPLFLIGPRGCGKTTVGMALADSLNRRFVDTDQWLQSQLNMTVAEIVEREEWAGFRARETAALEAVTAPSTVIATGGGIILTEFNRHFMQNNGIVVYLCAPVSVLVNRLQAAPEEDLRPTLTGKPLSEEVQEVLEERDALYREVAHIIIDATNEPSQVISEIRSALAQTINC [P0A6E1]
### Response 4.64
